Test: Clinical study, steady state PK (Cycle 1 Day 15) after daily oral tablets of example 1
Format: in vivo, human
Settings: human, in vivo, 150 mg qd (N = 6), geometric mean (CV %)
PROPERTY_MEASURED: AUC(0-t) (ng·h/mL)
Just the number please, in ng·h/mL, no unit attached.

Task: Given the molecule "Cc1cc(C(=O)Nc2nc3cccc(Cl)c3n2[C@@H]2CCCCN(C(=O)/C=C/CN(C)C)C2)ccn1" , what is its reported AUC(0-t)?
Output: 10300

----------
Experiment: Clinical study, steady state PK (Cycle 1 Day 15) after daily oral tablets of example 1
Format: in vivo, human
Details: human, in vivo, 100 mg qd (N = 3), geometric mean (CV %)
PROPERTY_MEASURED: Cmax (ng/mL)
Express it in ng/mL; write the number only.

Task: Entry "Cc1cc(C(=O)Nc2nc3cccc(Cl)c3n2[C@@H]2CCCCN(C(=O)/C=C/CN(C)C)C2)ccn1" has what Cmax?
Output: 519

----------
Assay: Clinical study, steady state PK (Cycle 1 Day 15) after daily oral tablets of example 1
Format: in vivo, human
Conditions: human, in vivo, 100 mg qd (N = 3), only one value calculated, read-out: T½ (converted)
PROPERTY_MEASURED: half-life (h)
Provide only the numeric value, understood in h.

Task: Sample "Cc1cc(C(=O)Nc2nc3cccc(Cl)c3n2[C@@H]2CCCCN(C(=O)/C=C/CN(C)C)C2)ccn1" — what was its half-life?
Output: 14

----------
Experiment: Clinical study, steady state PK (Cycle 1 Day 15) after daily oral tablets of example 1
Assay type: in vivo, human
Conditions: human, in vivo, 225 mg qd (N = 7), geometric mean (CV %)
PROPERTY_MEASURED: AUC(0-t) (ng·h/mL)
Quick reminder: number only, in ng·h/mL, skip the unit.

Task: So what does the record say about AUC(0-t) for "Cc1cc(C(=O)Nc2nc3cccc(Cl)c3n2[C@@H]2CCCCN(C(=O)/C=C/CN(C)C)C2)ccn1" ?
Output: 12100

----------
Assay: Clinical study, steady state PK (Cycle 1 Day 15) after daily oral tablets of example 1
Assay type: in vivo, human
Conditions: human, in vivo, 100 mg qd (N = 3), geometric mean (CV %)
PROPERTY_MEASURED: AUC(0-t) (ng·h/mL)
Unit ng·h/mL implied. Number only.

Task: AUC(0-t) lookup needed for "Cc1cc(C(=O)Nc2nc3cccc(Cl)c3n2[C@@H]2CCCCN(C(=O)/C=C/CN(C)C)C2)ccn1" , thanks.
Output: 9050

----------
Assay: Clinical study, steady state PK (Cycle 1 Day 15) after daily oral tablets of example 1
Assay type: in vivo, human
Settings: human, in vivo, 150 mg qd (N = 6), median (minimum-maximum)
PROPERTY_MEASURED: Tmax (h)
The reply should be a number in h, with the unit left off.

Task: # lookup: Tmax of "Cc1cc(C(=O)Nc2nc3cccc(Cl)c3n2[C@@H]2CCCCN(C(=O)/C=C/CN(C)C)C2)ccn1"
Output: 5

----------
Assay: Clinical study, steady state PK (Cycle 1 Day 15) after daily oral tablets of example 1
Format: in vivo, human
Settings: human, in vivo, 200 mg qd (N = 7), geometric mean (CV %)
PROPERTY_MEASURED: AUC(0-t) (ng·h/mL)
Numbers only here, please. The scale is ng·h/mL.

Task: What value of measured AUC(0-t) is listed for "Cc1cc(C(=O)Nc2nc3cccc(Cl)c3n2[C@@H]2CCCCN(C(=O)/C=C/CN(C)C)C2)ccn1" ?
Output: 13500
